// reported normalized growth for each item listed
Assay name: chemical genetic growth profiling, strain panel (AID 1159580);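 further: tested at 20 µM; growth read once vehicle control cultures reached saturation at 30 °C; 1 = growth at the plate median or of vehicle wells; lower values mean less growth of the strain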
Cond: S. cerevisiae deletion strains, growth OD, locus YLR403W, strain SFP1, stronger effect = lower value
In all, about 5,500 compounds went through this assay and about 2,000 (36%) were called active. Another 18% or so got no clear call; they are omitted. The list shows a part of the results.
When you answer, write just the number.

O=C(Nc1cccc(C(F)(F)F)c1)c1cncc(C#Cc2ccccc2)c1 ... 0.843
Fc1cc(I)ccc1Nc1ccnc2cc(Cl)ccc12 ... 0.95

Next compound, please.
stdin: Look up and state reported normalized growth for C/C(Cc1nnn(-c2cc(C)on2)n1)=N/OC(=O)Nc1ccc(Cl)cc1
stdout: 0.933
